experimental.target: 5-HT2C receptor (Homo sapiens)
Construct: expressed in transfected cells; host or cells: HEK-293 cells
Sequence (P28335 33-458): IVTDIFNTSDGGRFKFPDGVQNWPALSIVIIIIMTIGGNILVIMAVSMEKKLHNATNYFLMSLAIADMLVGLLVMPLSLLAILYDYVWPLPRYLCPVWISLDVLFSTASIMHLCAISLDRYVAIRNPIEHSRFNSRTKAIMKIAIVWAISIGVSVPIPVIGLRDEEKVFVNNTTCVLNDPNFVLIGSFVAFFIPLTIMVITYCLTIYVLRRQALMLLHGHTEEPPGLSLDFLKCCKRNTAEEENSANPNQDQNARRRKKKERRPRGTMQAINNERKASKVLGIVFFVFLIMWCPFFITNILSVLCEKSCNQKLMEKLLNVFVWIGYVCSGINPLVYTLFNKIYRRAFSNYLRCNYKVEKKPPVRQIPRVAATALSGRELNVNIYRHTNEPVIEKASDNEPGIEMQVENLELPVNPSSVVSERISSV
test: Radioligand binding assay, serotoninergic 5-HT2C receptors
stated.conditions: test compound 1×10^−6 M
measured.quantity: inhibition at 1 µM

molecule=O=S(=O)(NCC1CN(CCOc2cccc3c2OCCO3)C1)c1cc2ccccc2o1 value_observed=79%
molecule=O=S(=O)(NC1CN(CCOc2cccc3[nH]ccc23)C1)c1ccc(F)cc1 value_observed=21%
molecule=O=S(=O)(N[C@H]1CCN(CCCc2noc3cc(F)ccc23)C1)c1cc2ccccc2o1 value_observed=74%
molecule=COc1ccc2cc(S(=O)(=O)N[C@@H]3CCN(CCCc4noc5cc(F)ccc45)C3)ccc2c1 value_observed=91%
molecule=O=S(=O)(N[C@@H]1CCN(CCCc2noc3cc(F)ccc23)C1)c1ccc2cc(Cl)ccc2c1 value_observed=77%
molecule=O=S(=O)(N[C@@H]1CCN(CCCc2noc3cc(F)ccc23)C1)c1csc2ccccc12 value_observed=71%
molecule="Cc1cc(S(=O)(=O)NC2CCN(CCCc3noc4cc(F)ccc34)C2)c(C)s1 (centres unmarked)" value_observed=81%
molecule=O=S(=O)(N[C@@H]1CCN(CCCc2noc3cc(F)ccc23)C1)c1cc2ccccc2s1 value_observed=86%

---

experimental.target: receptors D4.4 (Homo sapiens, UniProt P21917)
Sequence (P21917 1-419): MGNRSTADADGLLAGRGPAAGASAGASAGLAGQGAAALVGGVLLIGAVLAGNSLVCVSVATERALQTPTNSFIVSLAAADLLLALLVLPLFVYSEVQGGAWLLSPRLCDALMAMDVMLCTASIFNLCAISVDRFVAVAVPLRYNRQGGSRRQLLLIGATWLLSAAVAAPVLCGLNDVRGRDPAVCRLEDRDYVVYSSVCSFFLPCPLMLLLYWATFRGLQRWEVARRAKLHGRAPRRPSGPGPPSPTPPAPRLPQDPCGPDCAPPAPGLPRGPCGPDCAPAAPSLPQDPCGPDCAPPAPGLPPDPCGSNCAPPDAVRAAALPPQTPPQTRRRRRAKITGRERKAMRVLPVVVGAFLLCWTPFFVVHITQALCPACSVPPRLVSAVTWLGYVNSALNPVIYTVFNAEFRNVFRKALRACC
test: Radioligand binding assay, dopaminergic D4 (D4.4) receptors
stated.conditions: test compound 1×10^−6 M
Text: The specific ligand binding to the receptors is defined as the difference between the total binding and the non-specific binding determined in the presence of the excess of unlabelled ligand. The results are expressed as a percent of control specific binding ((measured specific binding/control specific binding)×100) and as a percent inhibition of control specific binding (100−((measured specific binding/control specific binding)×100)) obtained in the presence of the test compounds. […]
Quick reference for inhibition at 1 µM among some molecules
measured.quantity: inhibition at 1 µM

molecule=O=S(=O)(N[C@H]1CCN(CCCc2noc3cc(F)ccc23)C1)c1ccc2ccccc2c1 measured_quantity="inhibition at 1 µM" value_observed=85%
molecule=O=S(=O)(N[C@H]1CCN(CCCc2noc3cc(F)ccc23)C1)c1cc2ccc(Cl)cc2s1 measured_quantity="inhibition at 1 µM" value_observed=69%
molecule="O=S(=O)(NCC1CCN(CCOc2cccc3c2OCCO3)C1)c1ccc(F)c(Cl)c1 (centres unmarked)" measured_quantity="inhibition at 1 µM" value_observed=59%
molecule="O=S(=O)(NC1CCN(CCCc2noc3cc(F)ccc23)C1)c1ccc2ccccc2c1 (centres unmarked)" measured_quantity="inhibition at 1 µM" value_observed=83%
molecule="CC1(C)Cc2cccc(OCCN3CCC(NS(=O)(=O)c4ccc5ccccc5c4)C3)c2O1 (centres unmarked)" measured_quantity="inhibition at 1 µM" value_observed=85%
molecule=O=S(=O)(NCC1CN(CCOc2cccc3c2OCCO3)C1)c1cc2ccccc2o1 measured_quantity="inhibition at 1 µM" value_observed=55%
molecule="O=S(=O)(NC1CCN(CCCc2c[nH]c3ccc(F)cc23)C1)c1cccc2ccccc12 (centres unmarked)" measured_quantity="inhibition at 1 µM" value_observed=92%
molecule="O=S(=O)(NCC1CCN(CCOc2cccc3c2OCCO3)C1)c1ccc2c(c1)CCO2 (centres unmarked)" measured_quantity="inhibition at 1 µM" value_observed=33%

---

experimental.target: D2 dopaminergic receptors (Homo sapiens, UniProt P14416)
Sequence (P14416 whole entry): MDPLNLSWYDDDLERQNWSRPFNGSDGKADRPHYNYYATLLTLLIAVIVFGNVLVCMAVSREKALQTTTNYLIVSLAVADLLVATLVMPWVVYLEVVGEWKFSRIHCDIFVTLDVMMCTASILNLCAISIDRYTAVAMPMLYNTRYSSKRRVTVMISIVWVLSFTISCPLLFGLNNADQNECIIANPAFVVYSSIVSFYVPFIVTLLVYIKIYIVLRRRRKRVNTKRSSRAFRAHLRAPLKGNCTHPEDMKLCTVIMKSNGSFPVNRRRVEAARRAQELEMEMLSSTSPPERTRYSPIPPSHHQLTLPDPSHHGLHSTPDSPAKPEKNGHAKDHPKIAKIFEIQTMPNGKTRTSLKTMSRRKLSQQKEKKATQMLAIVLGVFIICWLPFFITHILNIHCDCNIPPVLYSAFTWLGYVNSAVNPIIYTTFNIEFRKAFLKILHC
test: Cellular functional assay, D2 dopaminergic receptors
Assay type: cell-based
stated.conditions: antagonism, D2S (h), HEK-293 cells, stimulus dopamine (30 nM)
Binary label based on D2 antag [%] with cut-off 70%: below gives 1.0, not below gives 0.0.

molecule=O=S(=O)(N[C@@H]1CCN(CCCc2noc3cc(F)ccc23)C1)c1ccc2cc(Cl)ccc2c1 experimental_target="D2 dopaminergic receptors (Homo sapiens, UniProt P14416)" class_label=0.0
molecule="O=S(=O)(NC1CCN(CCCc2noc3cc(F)ccc23)C1)c1cccc2ccccc12 (stereo not drawn)" experimental_target="D2 dopaminergic receptors (Homo sapiens, UniProt P14416)" class_label=1.0
molecule="Cc1ccc2sc(S(=O)(=O)NC3CCN(CCCc4noc5cc(F)ccc45)C3)cc2c1 (stereo not drawn)" experimental_target="D2 dopaminergic receptors (Homo sapiens, UniProt P14416)" class_label=0.0
molecule=Cc1c(S(=O)(=O)N[C@H]2CCN(CCCc3noc4cc(F)ccc34)C2)sc2ccc(Cl)cc12 experimental_target="D2 dopaminergic receptors (Homo sapiens, UniProt P14416)" class_label=1.0
molecule="O=S(=O)(NCC1CCN(CCCc2noc3cc(F)ccc23)C1)c1ccc2ccccc2c1 (stereo not drawn)" experimental_target="D2 dopaminergic receptors (Homo sapiens, UniProt P14416)" class_label=1.0
molecule=Cc1c(S(=O)(=O)NCC2CN(CCCc3noc4cc(F)ccc34)C2)sc2ccc(F)cc12 experimental_target="D2 dopaminergic receptors (Homo sapiens, UniProt P14416)" class_label=1.0
molecule=O=S(=O)(NC1CN(CCOc2cccc3c2OCCO3)C1)c1cccc2ccccc12 experimental_target="D2 dopaminergic receptors (Homo sapiens, UniProt P14416)" class_label=0.0
molecule="O=S(=O)(NC1CCN(CCCc2c[nH]c3ccc(F)cc23)C1)c1ccc2ccccc2c1 (stereo not drawn)" experimental_target="D2 dopaminergic receptors (Homo sapiens, UniProt P14416)" class_label=0.0

---

experimental.target: dopaminergic receptors D3 (Homo sapiens, UniProt P35462)
Sequence (P35462 whole entry): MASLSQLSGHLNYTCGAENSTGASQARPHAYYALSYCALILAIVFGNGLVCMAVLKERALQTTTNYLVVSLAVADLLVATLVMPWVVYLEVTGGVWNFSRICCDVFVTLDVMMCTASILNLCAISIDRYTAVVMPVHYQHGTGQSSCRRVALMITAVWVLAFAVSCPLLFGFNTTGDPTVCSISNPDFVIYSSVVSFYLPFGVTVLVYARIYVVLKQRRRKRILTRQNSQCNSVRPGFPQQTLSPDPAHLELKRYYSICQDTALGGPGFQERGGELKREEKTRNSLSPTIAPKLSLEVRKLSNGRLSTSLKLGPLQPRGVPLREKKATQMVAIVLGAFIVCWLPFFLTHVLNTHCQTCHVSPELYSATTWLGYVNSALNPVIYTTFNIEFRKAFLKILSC
test: Radioligand binding assay, dopaminergic D3 receptors
stated.conditions: test compound 1×10^−6 M
Outcome label depends on inhibition at 1 µM relative to 60%: at/above gives True, below gives False.

molecule="O=S(=O)(NC1CCN(CCCc2noc3cc(F)ccc23)C1)c1csc2ccccc12 (centres unmarked)" class_label=True
molecule="O=S(=O)(NC1CCN(CCCc2noc3cc(F)ccc23)C1)c1ccc(Cl)s1 (centres unmarked)" class_label=False
molecule="CC1(C)Cc2cccc(OCCN3CCC(NS(=O)(=O)c4ccc5ccccc5c4)C3)c2O1 (centres unmarked)" class_label=True
molecule="O=S(=O)(NC1CCN(CCCc2c[nH]c3ccc(Cl)cc23)C1)c1ccc(Cl)cc1 (centres unmarked)" class_label=True
molecule="O=S(=O)(NCC1CCN(CCOc2nsc3ccccc23)C1)c1cccc(O)c1 (centres unmarked)" class_label=False
molecule=Cn1ccc2cc(S(=O)(=O)NCC3CN(CCOc4cccc5c4OCCO5)C3)ccc21 class_label=False
molecule="O=S(=O)(NCC1CCN(CCOc2cccc3c2OCCO3)C1)c1cccs1 (centres unmarked)" class_label=False
molecule=O=S(=O)(NC1CCN(CCCc2noc3cc(F)ccc23)CC1)c1ccc(-c2ccccc2)cc1 class_label=False
molecule="Cc1c(S(=O)(=O)NCC2CCN(CCOc3cccc4ccccc34)C2)sc2ccc(Cl)cc12 (centres unmarked)" class_label=True
molecule=Cc1c(S(=O)(=O)NCC2CN(CCOc3cccc4ccccc34)C2)sc2ccc(Cl)cc12 class_label=True
molecule=O=S(=O)(NCC1CN(CCOc2cccc3c2OCCO3)C1)c1ccc2cc(Cl)ccc2c1 class_label=False
molecule=O=S(=O)(NCC1CN(CCOc2cccc3c2OCCO3)C1)c1ccc(I)cc1 class_label=False
molecule="O=S(=O)(NCC1CCN(CCOc2cccc3c2OCCO3)C1)c1ccc(Cl)cc1 (centres unmarked)" class_label=False
molecule=Cc1cc(S(=O)(=O)N[C@@H]2CCN(CCCc3noc4cc(F)ccc34)C2)c(C)s1 class_label=True
molecule="O=S(=O)(NC1CCN(CCCc2noc3cc(F)ccc23)C1)c1ccc(Br)cc1 (centres unmarked)" class_label=False
molecule="O=S(=O)(NC1CCN(CCOc2cccc3ccccc23)C1)c1ccc2ccccc2c1 (centres unmarked)" class_label=True

---

experimental.target: dopaminergic receptors D3 (Homo sapiens, UniProt P35462)
test: Radioligand binding assay, dopaminergic D3 receptors
stated.conditions: test compound 1×10^−6 M
measured.quantity: inhibition at 1 µM

molecule=COc1ccc2cc(S(=O)(=O)N[C@H]3CCN(CCCc4noc5cc(F)ccc45)C3)ccc2c1 value_observed=91%
molecule=Cc1cccc(S(=O)(=O)NC2CN(CCOc3cccc4[nH]ccc34)C2)c1 value_observed=104%
molecule="O=S(=O)(NC1CCN(CCCc2c[nH]c3ccc(F)cc23)C1)c1ccc(Cl)cc1 (stereo not shown)" value_observed=93%
molecule="O=S(=O)(NCC1CCN(CCOc2cccc3c2OCCO3)C1)c1ccc2c(c1)CCO2 (stereo not shown)" value_observed=26%
